- Assay: yeast display, Sf9 membrane polyspecificity reagent, FACS + sequencing; frameworks hold sequencing errors
Parameter: polyreactivity (PSR sort gate)

{"Monomer sequence": "QVQLVESVGGLVQAGGSLRLSCAAYGLTFRYYAMGWYRQSPGKESELDAAISSGGSTNYADSVKGRFTISRDNAKNTVYLQMNSLKPEDTAVYYCAAVSNSKWGRWGRAKYNYWGQGTQVTVSS", "Parameter": "polyreactivity (PSR sort gate)", "Observed result": "high polyreactivity"}
{"Monomer sequence": "QVQLVESGGGLVQAGGSLRLSCAASGITFIYYHMGWYRQAPGKERELVAAINWSGGRTYYADSVKGRFTISRDNAKNTVYVQMNSLIPEDTAVYYCAADSWRPVYLGYYWGQGTQVTVSS", "Parameter": "polyreactivity (PSR sort gate)", "Observed result": "high polyreactivity"}
{"Monomer sequence": "QVQLVESGGGLVQAGGTLRLSCAASGFIFCTYAMGWSRQAPGKERELVAAISSRDVSTYYADSVKGRFTISRDNAKNTVYLQMNSLKPEDTAVYYCAAEDPYYYPYEYWGQGTQVTVSS", "Parameter": "polyreactivity (PSR sort gate)", "Observed result": "high polyreactivity"}
{"Monomer sequence": "QEQLQESGGGLVQAGGTLRLSCSASGTISPLPAMGWYRQSPGKEREFVAGIDTGAITNYADSVKGRFTISRDNAKNTVYLQMNSLKPEDTAVYYCAVFPAAYDYYERYYTYWGQGTQVTVCS", "Parameter": "polyreactivity (PSR sort gate)", "Observed result": "low polyreactivity"}
{"Monomer sequence": "QVQLVESGGGLVQAGGSLRLSCAASGSTFYLNDMGWYRQAPGKERELVAAIDWSGGSTYYADSVKGRFTISRDNAKNTVYLQMNSLNPEDTAVYYCAARLVYEWRRLDYFIAWDYWGQGTQVTVSS", "Parameter": "polyreactivity (PSR sort gate)", "Observed result": "low polyreactivity"}
{"Monomer sequence": "QVQLVESGGGLVQAGGSLRLSCAASGLTFWVYAMGWYRQAPGKERELVAAISGSGARTYYADSVKGRFTISRDNAKNTVYLQMNSLKPEDTAVYYCAARAVRATAKYEYWGQGTQVTVSS", "Parameter": "polyreactivity (PSR sort gate)", "Observed result": "high polyreactivity"}
{"Monomer sequence": "QVQLVESGGGLVHSGRSLRLSCAASGSISCHYAMGWYRTAHGKERDLLAAIDSSGGIKYYADSVKGRFTISRDNSKNTVYLQMNSLKPEDTAVYYCAAVFLLFGFEWSYDYWGQGTQVTVSS", "Parameter": "polyreactivity (PSR sort gate)", "Observed result": "low polyreactivity"}
{"Monomer sequence": "QVQLVESGGGLVQAGGSLRLSCAASGRIFPYYAMGWYRQAPGKERELVAAITQGGGRTYYADSVKGRFTISRDNAKNTVYLQMNSLKPEDTAVYYCAKRFTIRALLLRWADYDYWGQGTQVTVSS", "Parameter": "polyreactivity (PSR sort gate)", "Observed result": "low polyreactivity"}
{"Monomer sequence": "QVQLVESGGGLVQAGGSLRLSCAASGLTLTGYAMGWYRQAPGKERELVAAISQDGGNTYYADSVKGRFTISRDNAKNTVYLQMNSLKREDTAVYYCAAVGRAKYYYWGQGTQVTVSS", "Parameter": "polyreactivity (PSR sort gate)", "Observed result": "low polyreactivity"}
{"Monomer sequence": "QVQLVESGGGLVQAGGSLRLSCAASGRTFSHYAMGWYRQAPGKERELVAAISGSGGTTYYADSVKGRFTISRDNAKNTVYLQMNSLKPEDTAVYYCNTRGRYLMDYWGQGTQVTVSS", "Parameter": "polyreactivity (PSR sort gate)", "Observed result": "high polyreactivity"}
{"Monomer sequence": "QVQLVESGGGLVQAGGSLRLSCAASGRTFSYNAMGWYRQAPGKERELVASISSSGTSTSYADSVKGRFTISRDNAKNTVYLQMNSLKPEDTAVYYCATVRYPYWYSGPQNSRGYWGQGTQVTVSS", "Parameter": "polyreactivity (PSR sort gate)", "Observed result": "high polyreactivity"}
{"Monomer sequence": "QVQLVESGGGLVQAGGSLRLSCAASRSIFAGNAMVWYRQSPGKERELVAGITFGDDSTYYADSVKGRFTISRDNAKNTVYLQMNSLKPEVTAVYYCATDLHPYNYYFYHYWVDAAYDYLGQGTQVTVSS", "Parameter": "polyreactivity (PSR sort gate)", "Observed result": "low polyreactivity"}
{"Monomer sequence": "QVQLVESGGGLFQAGGSLRLSCAASGSIFRYYVMGWYRQAPGKEMELVAAISTGDRTNYADSVKGRFTISRDNAKNTVYLQMNSLKPEDTAVYYCNADYVVGWARLEFNYWGQGTQVTVSS", "Parameter": "polyreactivity (PSR sort gate)", "Observed result": "low polyreactivity"}
{"Monomer sequence": "QVQLVESGGGLVQAGGSLRLSCAASGFTFRVYAMGWYRTAPVKEREFVASITWGGGRTYYADSVKGRFTISRDNAKNTVYLLMNSLKPEDTAVYYCAAYGSLDSYVSYYYWGQGTQVTVSS", "Parameter": "polyreactivity (PSR sort gate)", "Observed result": "high polyreactivity"}
{"Monomer sequence": "QVQLQESGGGLVQAGGSLRQSCAASGYIFPYYSMGWYRQAPGKERGLVACIAAGTTTNYADSVKGRFTISRDNAKNTVYLQMISLKPEDAAVYYCAALNAFNTGHWYWGQGTQVTVSS", "Parameter": "polyreactivity (PSR sort gate)", "Observed result": "low polyreactivity"}
